Hi there, I'd appreciate the recorded hEphA4-SEAP-: absorbance at 450 nm, percentage with respect to hEphA4-SEAP-His as 100% for every entry that follows.
Target: T1, human EphA4 (Homo sapiens, UniProt P54764)
T1 construct: made in house; not restated for the human SEAP-His protein
T1 sequence (P54764 20-547): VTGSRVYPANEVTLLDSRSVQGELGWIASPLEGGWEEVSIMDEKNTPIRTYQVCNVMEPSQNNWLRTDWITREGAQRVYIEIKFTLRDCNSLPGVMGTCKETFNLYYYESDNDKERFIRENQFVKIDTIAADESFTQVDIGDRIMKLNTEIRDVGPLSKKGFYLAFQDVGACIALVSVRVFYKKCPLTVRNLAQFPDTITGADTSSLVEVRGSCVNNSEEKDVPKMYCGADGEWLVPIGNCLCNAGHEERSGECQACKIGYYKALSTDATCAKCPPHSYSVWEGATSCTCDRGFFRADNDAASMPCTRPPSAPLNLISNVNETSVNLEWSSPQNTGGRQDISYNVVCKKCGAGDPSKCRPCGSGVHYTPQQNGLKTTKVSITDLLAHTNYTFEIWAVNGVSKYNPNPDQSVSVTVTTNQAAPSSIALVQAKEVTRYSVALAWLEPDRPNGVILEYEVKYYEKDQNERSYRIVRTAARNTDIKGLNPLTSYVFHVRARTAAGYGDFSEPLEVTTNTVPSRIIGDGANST
Test: Selectivity ELISA of humanized antibodies for human Eph receptor
Assay type: binding
Settings: coated protein 1 nM; reference set to 100%

1) 94 (antibody, V domains shown, constant regions without entry; synthetic humanized antibody light chain variable region sequence; synthetic humanized antibody heavy chain variable region sequence) VL: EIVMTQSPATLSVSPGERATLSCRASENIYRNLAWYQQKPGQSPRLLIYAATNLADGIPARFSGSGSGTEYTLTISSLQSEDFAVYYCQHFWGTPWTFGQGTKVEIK VH: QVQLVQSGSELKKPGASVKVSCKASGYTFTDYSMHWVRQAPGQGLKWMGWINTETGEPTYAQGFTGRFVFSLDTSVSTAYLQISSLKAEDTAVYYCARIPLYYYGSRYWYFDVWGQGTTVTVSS
100%

With those in mind, consider the next molecule.
Lab book: hEphA4-SEAP-: absorbance at 450 nm, percentage with respect to hEphA4-SEAP-His as 100% of 73 (antibody, V domains shown, synthetic humanized antibody heavy chain variable region sequence; synthetic humanized antibody light chain variable region sequence) VH: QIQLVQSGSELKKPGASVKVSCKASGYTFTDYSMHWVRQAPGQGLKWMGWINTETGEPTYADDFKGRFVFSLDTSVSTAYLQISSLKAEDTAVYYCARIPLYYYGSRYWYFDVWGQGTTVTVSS VL: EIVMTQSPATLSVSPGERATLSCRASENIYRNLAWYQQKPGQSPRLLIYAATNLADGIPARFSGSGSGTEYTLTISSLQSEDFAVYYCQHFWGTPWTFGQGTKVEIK noted as 100%
